Assay: Quantitative High-Throughput Screen for Regulators of Epigenetic Control; also: nearly all actives have a fitted effect of over 60% in size
Conditions: murine LDR cells, GFP reporter derepression, 30 h; series mostly up to 53.9 µM
About 540 (0.19%) of roughly 280,000 compounds were called active. Not shown: some 2% with an inconclusive outcome. Calls follow the shape of the dose curve; as a rule, active = well fitted activation curve with a large enough effect; inconclusive = small, poorly fitted or top-dose-only effect; inactive = flat fitted curve, though single readings scatter. Only a selection was taken, and actives are over-represented in it overall.
Please state which outcome applies, choosing from true for active, false for inactive

For this molecule, state the assay outcome: `COc1ccc(C(=O)N2CCC(c3nc4ccccc4o3)CC2)cc1` false

For this molecule, state the assay outcome: `CCOC(=O)c1c(S(=O)(=O)NCC(=O)Nc2ccc(Cl)c(C(F)(F)F)c2)c(C)n(C)c1C` false

For this molecule, state the assay outcome: `O=C(N/N=C/C=C/c1ccco1)c1cccs1` true

For this molecule, state the assay outcome: `Cc1ccc(NC(=O)Cn2c(=O)n(-c3ccccc3)c(=O)c3c4c(sc32)CCCC4)cc1` false

For this molecule, state the assay outcome: CC(C)(C)c1ccc(C(=O)NCC(c2ccc(Cl)cc2)N2CCOCC2)cc1 (configuration not stated) false

For this molecule, state the assay outcome: `CCN1CCN(CCNC(=O)c2ccc(/C=C3/Sc4ccccc4N(Cc4cccc(C)c4)C3=O)cc2)CC1` false

For this molecule, state the assay outcome: `CC(C)(C)c1ccc(OCC(=O)N2CCC(c3nc4ccccc4s3)CC2)cc1` false

For this molecule, state the assay outcome: `Cc1ccc(/C=N/NC(=S)Nc2cccc(S(=O)(=O)N(C)C)c2)o1` true
